assay: Selectivity index, ratio of IC50 for human ARPE19 cells to IC50 for human HCT116 cells; assay type: toxicity; conditions: ARPE19 cells versus HCT116 cells, read-out: Ratio IC50
Known selectivity ratio of a selection of molecules

{"STRUCTURE": "CC(C)CCc1sc(NC(=O)c2cc(NC(=O)c3cc(NC(=O)c4ccc(F)cc4)cn3C)cn2C)nc1C(=O)NCCCN(C)C", "RELATION": "=", "selectivity ratio": 1.38}
{"STRUCTURE": "CC(C)CCc1sc(NC(=O)c2cc(NC(=O)c3cc(NC(=N)c4cccc(Cl)c4)cn3C)cn2C)nc1C(=O)NCCN1CCOCC1", "RELATION": "=", "selectivity ratio": 1.26}
{"STRUCTURE": "COc1cccc(C(=N)Nc2cc(C(=O)Nc3cc(C(=O)Nc4nc(C(=O)NCCCN(C)C)c(CCC(C)C)s4)n(C)c3)n(C)c2)c1", "RELATION": ">", "selectivity ratio": 7.52}
{"STRUCTURE": "CC(C)CCc1sc(NC(=O)c2cc(NC(=O)c3ccc(NC(=O)c4ccc(F)cc4)cc3)cn2C)nc1C(=O)NCCCN(C)C", "RELATION": "=", "selectivity ratio": 3.25}
{"STRUCTURE": "CC(C)CCc1sc(NC(=O)c2cc(NC(=O)c3cc(NC(=N)c4ccc(Cl)cc4)cn3C)cn2C)nc1C(=O)NCCCN(C)C", "RELATION": "=", "selectivity ratio": 2.44}
{"STRUCTURE": "COc1cc(/C=C/c2ccc(C(=O)Nc3cc(C(=O)Nc4nc(C(=O)NCCCN(C)C)c(CCC(C)C)s4)n(C)c3)cn2)ccc1F", "RELATION": "=", "selectivity ratio": 3.41}
{"STRUCTURE": "CC(C)CCc1sc(NC(=O)c2cc(NC(=O)c3ccc(/C=C/c4cccc(F)c4)cc3)cn2C)nc1C(=O)NCCCN(C)C", "RELATION": "=", "selectivity ratio": 0.93}
{"STRUCTURE": "CC(C)CCc1sc(NC(=O)c2cc(NC(=O)c3ccc(/C=C/c4cccc(C(F)(F)F)c4)nc3)cn2C)nc1C(=O)NCCCN(C)C", "RELATION": "=", "selectivity ratio": 1.56}
{"STRUCTURE": "CC(C)CCc1sc(NC(=O)c2cc(NC(=O)c3cc(NC(=N)c4ccccc4)cn3C)cn2C)nc1C(=O)NCCCN(C)C", "RELATION": ">", "selectivity ratio": 4.72}

###

Parameter logD: see the listing below.
test: Lipophilicity, logD of compound at pH 7.4; type: physicochemical; conditions: buffer

{"STRUCTURE": "CC(C)CCc1sc(NC(=O)c2cc(NC(=O)c3ccc(NC(=O)c4ccc(F)cc4)cc3)cn2C)nc1C(=O)NCCCN(C)C", "logD": 3.87}
{"STRUCTURE": "CC(C)CCc1sc(NC(=O)c2cc(NC(=O)c3cc(NC(=N)c4ccc(Cl)cc4)cn3C)cn2C)nc1C(=O)NCCCN(C)C", "logD": 3.13}
{"STRUCTURE": "CC(=O)Nc1cc(C(=O)Nc2cc(C(=O)Nc3nc(C(=O)NCCCN(C)C)c(CCC(C)C)s3)n(C)c2)n(C)c1", "logD": 1.05}
{"STRUCTURE": "CC(C)CCc1sc(NC(=O)c2cc(NC(=O)c3cc(NC(=N)c4cccc(F)c4)cn3C)cn2C)nc1C(=O)NCCCN(C)C", "logD": 2.91}
{"STRUCTURE": "CC(C)CCc1sc(NC(=O)c2cc(NC(=O)c3ccc(/C=C/c4cccc(C(F)(F)F)c4)nc3)cn2C)nc1C(=O)NCCCN(C)C", "logD": 4.87}
{"STRUCTURE": "CC(C)CCc1sc(NC(=O)c2cc(NC(=O)c3cc(NC(=O)c4cccc(F)c4)cn3C)cn2C)nc1C(=O)NCCCN(C)C", "logD": 3.09}
{"STRUCTURE": "CC(=O)Nc1cc(C(=O)Nc2cc(C(=O)Nc3cc(C(=O)NCCCN(C)C)n(C)c3)n(C)c2)n(C)c1", "logD": -1.67}
{"STRUCTURE": "CC(C)CCc1sc(NC(=O)c2cc(NC(=O)c3cc(NC(=N)c4cccc(Cl)c4)cn3C)cn2C)nc1C(=O)NCCN1CCOCC1", "logD": 4.88}
{"STRUCTURE": "CC(C)CCc1sc(NC(=O)c2cc(NC(=O)c3cc(NC(=N)c4ccccc4)cn3C)cn2C)nc1C(=O)NCCCN(C)C", "logD": 2.42}
